system: MDA-MB-231 cells; assay: In vitro cytotoxicity (MTT) on MDA-MB-231; format: cell-based; conditions: Homo sapiens; MDA-MB-231, 48 hour exposure
pIC50: −log10 of the molar value.
Property measured: pIC50

Q: Could you share which pIC50 value was measured for `CN(C)C/C=C/C(=O)Nc1cc2c(Nc3ccc(F)c(Cl)c3)ncnc2cc1O[C@H]1CCOC1` ?
Ans: ~5.43
